Biological target: T1, recombinant human CD70 (AviTag, polyhistidine tag and chicken tenascin trimerization domain fused to the … (chicken; human, UniProt P10039 110-139, limits assumed)
T1 construct: domain: trimerization domain; Expressed in Expi293, purified by IMAC and SEC; Copies 3 is inferred from the trimerization domain; not shown: AviTag; polyhistidine tag
T1 sequence: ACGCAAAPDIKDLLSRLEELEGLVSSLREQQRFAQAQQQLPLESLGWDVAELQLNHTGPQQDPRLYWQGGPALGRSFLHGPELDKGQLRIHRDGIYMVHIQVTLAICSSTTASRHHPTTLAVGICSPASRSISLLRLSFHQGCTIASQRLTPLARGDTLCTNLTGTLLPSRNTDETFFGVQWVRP
Experiment: SPR (Biacore 8K, 37 C): CD70 captured via anti-AviTag antibody on C1 chip, scFv-Fc as analyte; 1:1 Langmuir fit
Outcome Measure: koff

QUERY: Reported koff for P08F08 anti-CD70 scFv-Fc fusion (Fc fusion, scFv-Fc expressed in Expi293; not shown: part of the hinge and Fc from a modified human IgG2) EVQLVQSGAEVKKPGESLKISCKGSGYGFTSYWIGWVRQMPGKGLEWMGIIHPDDSDTKYSPSFQGQVTISADKSISTAYLQWSSLKASDTAMYYCASSYLRGLWGGYFDYWGQGTLVTVSSGGGGSGGGGSGGGGSGGGGSELQSVLTQPPSASGTPGQRVTISCSGSSSNIGSNYVNWYQQLPGTAPKLLIYGDYQRPSGVPDRFSGSKSGTSASLAISGLRSEDEADYYCATRDDSLSGSVVFGTGTKLTVL : what is it?
RESULT: 0.0153 s⁻¹

Values compiled from patent US20190233528A1.
